tested on: Peripheral blood mononuclear cells (PBMCs); assay: Cytokine release assay (multiplex bead assay IL-10, IL-13, IFN-g) and analysis of population coverage; assay type: cell-based, human; details: cytokine release greater than 50 pg/ml in one or more of IL-13, IL-10, IFN-g; 50 mould allergic subjects; 100 μg/ml; 5 days
Where no end group is shown, it is not given here. [ ]: non-standard residue; d: D form. pGlu = O=C1CC[C@@H](C(=O)O)N1; Nle = CCCC[C@H](N)C(=O)O
quantity kind: % responders (%)
The figure you give is taken to be in %; do not add the unit.

# example entries with known answers
[
  {
    "substance": "AEVYQKLKALAKKTYGQ [Alt13A]",
    "test target": "Peripheral blood mononuclear cells (PBMCs)",
    "% responders, %": 86
  },
  {
    "substance": "HEIYVVDRVSAP [Alt30]",
    "test target": "Peripheral blood mononuclear cells (PBMCs)",
    "% responders, %": 36
  },
  {
    "substance": "AEVYQKLKALAKK [Alt12]",
    "test target": "Peripheral blood mononuclear cells (PBMCs)",
    "% responders, %": 38
  },
  {
    "substance": "IEKLRSNITVQYDI [Alt33]",
    "test target": "Peripheral blood mononuclear cells (PBMCs)",
    "% responders, %": 44
  },
  {
    "substance": "SAKRMKVAFKLDIEK [Alt06]",
    "test target": "Peripheral blood mononuclear cells (PBMCs)",
    "% responders, %": 16
  },
  {
    "substance": "KKVS-Nle-AIAKAAAAEK (KKVS[Nle]AIAKAAAAEK) [Alt11A]",
    "test target": "Peripheral blood mononuclear cells (PBMCs)",
    "% responders, %": 44
  },
  {
    "substance": "YEKYRRVVRAGVKV [Alt34]",
    "test target": "Peripheral blood mononuclear cells (PBMCs)",
    "% responders, %": 38
  },
  {
    "substance": "KQLL-Nle-LSAKRMKVAFK (KQLL[Nle]LSAKRMKVAFK) [Alt05B]",
    "test target": "Peripheral blood mononuclear cells (PBMCs)",
    "% responders, %": 12
  }
]

What % responders value was documented for this substance, KKYAGVFVSTGTLGGGK [Alt18] ?
50

Another: GWGVMVSHRSGET [Alt14]
44

Another: KTYVATATLPNY [Alt02B]
22

Another: SAFRSIEPELTVY [Alt10]
42

Another: GYTGKIKIA-Nle-DVASSE (GYTGKIKIA[Nle]DVASSE) [Alt15A]
42

Another: PyrKLKALAKKTYGQ ([pGlu]KLKALAKKTYGQ) [Alt13]
40

Another: KKDAYITLVTLPKSS [Alt03A]
16

Another: SYNVAKAGSIHLAK [Alt22A]
44

----------
test system: Peripheral blood mononuclear cells (PBMCs); test: Cytokine release assay (multiplex bead assay IL-10, IL-13, IFN-g) and analysis of population coverage; type: cell-based, human; details: cytokine release greater than 50 pg/ml in one or more of IL-13, IL-10, IFN-g; 50 mould allergic subjects; 100 μg/ml; 5 days
Where no end group is shown, it is not given here. [ ]: non-standard residue; d: D form. Nle = CCCC[C@H](N)C(=O)O
quantity kind: % responders (%)
The figure you give is taken to be in %; do not add the unit.

[
  {
    "substance": "NWLTLHTAALGPTAK [Alt31]",
    "value units": "%",
    "% responders": 58
  },
  {
    "substance": "IFRSLSKEEPDY [Alt04A]",
    "value units": "%",
    "% responders": 4
  },
  {
    "substance": "KYRRVVRAGVKVAQTAR [Alt34A]",
    "value units": "%",
    "% responders": 38
  },
  {
    "substance": "KSAFRSIEPELTVYK [Alt10A]",
    "value units": "%",
    "% responders": 34
  },
  {
    "substance": "KLFQVAETLPQEVLDK [Alt17]",
    "value units": "%",
    "% responders": 30
  }
]

What % responders value was documented for this substance, SYNVAKAGCIHLAK [Alt22] ?
46

Another: SAKR-Nle-KVAFKLDIEK (SAKR[Nle]KVAFKLDIEK) [Alt06A]
10
